Header: pIC50 / Tyrosine-protein phosphatase non-receptor type 1 (Homo sapiens, UniProt P18031) / multiple publications
- system-tested: Tyrosine-protein phosphatase non-receptor type 1 (Homo sapiens, UniProt P18031)
- Sequence (P18031 whole entry): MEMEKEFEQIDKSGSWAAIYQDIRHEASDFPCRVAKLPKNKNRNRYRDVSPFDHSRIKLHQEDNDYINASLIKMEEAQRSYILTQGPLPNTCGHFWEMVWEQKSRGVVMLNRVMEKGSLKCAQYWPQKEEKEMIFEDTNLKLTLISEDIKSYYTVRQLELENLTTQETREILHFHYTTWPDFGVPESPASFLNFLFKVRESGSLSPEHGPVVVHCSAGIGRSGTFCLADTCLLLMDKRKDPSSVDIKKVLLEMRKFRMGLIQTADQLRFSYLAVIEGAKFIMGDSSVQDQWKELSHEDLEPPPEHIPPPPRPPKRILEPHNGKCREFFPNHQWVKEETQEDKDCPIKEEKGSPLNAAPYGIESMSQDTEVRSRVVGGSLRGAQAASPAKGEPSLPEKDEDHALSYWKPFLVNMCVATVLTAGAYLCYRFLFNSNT
Lab note — pIC50 values are minus log10 of concentrations in M.

Examples from the recorded data:
CC(C)=CCc1c(O)ccc(C(=O)/C=C/c2ccc(O)cc2)c1O = 4.56
COC(=O)CCCCCNC(=O)[C@]12CCC(C)(C)C[C@H]1C1=CC[C@@H]3[C@@]4(C)CC[C@H](O[C@H]5O[C@H](C(=O)O)[C@@H](O)[C@H](O)[C@@H]5O)C(C)(C)[C@@H]4CC[C@@]3(C)[C@]1(C)CC2 = 5.72
CO[C@@H]1OC(=O)c2c(O)cc(C)c3c4c(c(O)c1c23)[C@]12COC(=O)c3c(O)cc(C)c(c31)C(=O)[C@H]4[C@@H]2OC(C)=O = 4.90

Return reported pIC50; argument: CCOCC1(CN2CCCCC2)COc2ccc3c(C)cc(=O)oc3c2C1=O (centres undefined)
4.44

---

- system-tested: Tyrosine-protein phosphatase non-receptor type 1 (Homo sapiens)
- Sequence (P18031 whole entry): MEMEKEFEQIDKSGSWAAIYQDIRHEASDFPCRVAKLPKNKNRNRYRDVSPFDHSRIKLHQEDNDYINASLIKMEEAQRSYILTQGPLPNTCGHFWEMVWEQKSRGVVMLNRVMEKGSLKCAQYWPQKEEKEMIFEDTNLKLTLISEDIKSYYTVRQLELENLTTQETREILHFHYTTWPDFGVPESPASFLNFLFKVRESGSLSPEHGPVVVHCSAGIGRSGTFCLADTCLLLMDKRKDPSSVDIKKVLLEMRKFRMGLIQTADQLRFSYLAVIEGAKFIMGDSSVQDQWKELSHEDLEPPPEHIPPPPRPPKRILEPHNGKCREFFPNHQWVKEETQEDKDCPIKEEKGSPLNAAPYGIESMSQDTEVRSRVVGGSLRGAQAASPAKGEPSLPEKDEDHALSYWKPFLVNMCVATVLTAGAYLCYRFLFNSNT
Header: pIC50 / Tyrosine-protein phosphatase non-receptor type 1 (Homo sapiens) / multiple publications
Lab note — pIC50 values are minus log10 of concentrations in M.

CCOS(=O)(=O)/C=C/c1ccc(O[C@@H]2CN(C(=O)C(=O)Nc3ccc(Oc4ccc5ccccc5c4)cc3)C[C@H]2Oc2ccc(CCS(=O)(=O)OCC)cc2)cc1 = 6.44

Return reported pIC50; argument: O=C(O)CN1C(=O)/C(=C/c2ccc(OCCc3ccccc3)cc2)SC1=S
4.31

And what about the molecule CC(=O)O[C@H]1[C@@H]2C(=O)c3c(C)cc(O)c4c3[C@@]1(COC4=O)c1c(O)c3c4c(c(O)cc(C)c4c12)C(=O)O3 ?
4.09

And what about the molecule CC(=O)O[C@H]1[C@@H]2C(=O)c3c(C)cc(O)c4c3[C@@]1(COC4=O)C1=C2c2c(C)cc(O)c3c(=O)n(-c4ccc(Cl)cc4)cc(c23)C1=O ?
4.86

And what about the molecule O=C(O)c1cc(-c2cccs2)cc(Cc2cc(-c3cccs3)cc(C(=O)O)c2O)c1O ?
4.57

And what about the molecule O=C(Nc1ccc(-c2ccc(NC(=O)C3CCN(C(=O)c4ccco4)CC3)cc2)cc1)C1CCN(C(=O)c2ccco2)CC1 ?
5.63

And what about the molecule O=C(O)[C@@H](Cc1ccccc1)N1C(=O)/C(=C/c2cn(-c3ccccc3)nc2-c2ccc3ccccc3c2)SC1=S ?
5.74

And what about the molecule NC(=O)[C@H](Cc1ccc(C2CC(=O)NS2(=O)=O)cc1)NC(=O)[C@H](Cc1ccccc1)NC(=O)CCc1ccccc1 (stereo not given in full) ?
6.47

And what about the molecule CC1(C)CC[C@]2(C(=O)NCCCCCC(=O)O)CC[C@]3(C)C(=CC[C@@H]4[C@@]5(C)CC[C@H](O[C@H]6O[C@H](C(=O)O)[C@@H](O)[C@H](O)[C@@H]6O)C(C)(C)[C@@H]5CC[C@]43C)[C@@H]2C1 ?
4.79
